# Tgt: AgaCA (Anopheles gambiae, UniProt Q5TU56)
# Construct: gene 1272966; full-length beta-CA, C-terminal thrombin site and His6 tag (tag removed by thrombin), baculovirus/Sf9
# Sequence (Q5TU56 1-255): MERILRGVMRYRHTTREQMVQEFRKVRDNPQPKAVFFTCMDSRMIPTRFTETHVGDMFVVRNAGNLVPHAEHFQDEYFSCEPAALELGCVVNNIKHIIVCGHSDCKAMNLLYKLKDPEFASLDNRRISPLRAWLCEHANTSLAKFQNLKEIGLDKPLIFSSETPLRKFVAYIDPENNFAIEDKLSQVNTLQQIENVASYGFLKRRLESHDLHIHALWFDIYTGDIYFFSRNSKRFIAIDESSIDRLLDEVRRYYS
# Method description: biochemical
# Stated conditions: read-out: AgaCA^c
pKi: −log10 of the molar value.

[
  {
    "Structure notation": "OB(O)c1ccccc1",
    "pKi": 4.33
  },
  {
    "Structure notation": "N#C[SeH]",
    "pKi": 2.06
  },
  {
    "Structure notation": "O=NO",
    "pKi": 2.34
  },
  {
    "Structure notation": "N#CO",
    "pKi": 2.02
  },
  {
    "Structure notation": "O=[Te](=O)(O)O",
    "pKi": 2.30
  },
  {
    "Structure notation": "NS(N)(=O)=O",
    "pKi": 4.27
  },
  {
    "Structure notation": "S=C(S)S",
    "pKi": 2.09
  },
  {
    "Structure notation": "[O]=[Sn]([OH])[OH]",
    "pKi": 2.74
  },
  {
    "Structure notation": "O=[N+]([O-])O",
    "pKi": 2.19
  },
  {
    "Structure notation": "F",
    "pKi": 2.03
  },
  {
    "Structure notation": "[O]=[V]([OH])([OH])[O][V](=[O])([OH])[OH]",
    "pKi": 2.10
  },
  {
    "Structure notation": "Cl",
    "pKi": 2.06
  },
  {
    "Structure notation": "O=[Se](=O)(O)O",
    "pKi": 2.03
  },
  {
    "Structure notation": "S",
    "pKi": 1.60
  },
  {
    "Structure notation": "CCN(CC)C(=S)S",
    "pKi": 3.19
  }
]
